# method-notes: Dissolution test (paddle apparatus, Ph. Eur. 2.9.3), release of active ingredient
# Type: physicochemical
# cond: time 1 hour
measured-endpoint: Derivative (of % of active ingredient released over time)

## Task Consider the molecule COc1cc2c(cc1OC)CC(=O)N(CCCN(C)C[C@H]1Cc3cc(OC)c(OC)cc31)CC2 [ivabradine hemipamoate] and give its measured Derivative (of % of active ingredient released over time).
## Result 0.2 %/min

====

# method-notes: Dissolution test (paddle apparatus, Ph. Eur. 2.9.3), release of active ingredient
# Format: physicochemical
# cond: time 0 hour
measured-endpoint: Derivative (of % of active ingredient released over time) (%/min)
Numeric answer only, unit %/min assumed.

## Task Consider the molecule COc1cc2c(cc1OC)CC(=O)N(CCCN(C)C[C@H]1Cc3cc(OC)c(OC)cc31)CC2 [ivabradine hemipamoate] and give its measured Derivative (of % of active ingredient released over time).
## Result 0

====

# method-notes: Dissolution test (paddle apparatus, Ph. Eur. 2.9.3), release of active ingredient
# Format: physicochemical
# cond: time 0.25 hour
measured-endpoint: Derivative (of % of active ingredient released over time)
# number then unit; no other words

## Task Consider the compound COc1cc2c(cc1OC)CC(=O)N(CCCN(C)C[C@H]1Cc3cc(OC)c(OC)cc31)CC2 [ivabradine hemipamoate] and give its measured Derivative (of % of active ingredient released over time).
## Result 0.79 %/min

====

# method-notes: Dissolution test (paddle apparatus, Ph. Eur. 2.9.3), release of active ingredient
# Type: physicochemical
# cond: time 4 hour
measured-endpoint: Derivative (of % of active ingredient released over time) (%/min)
Numeric answer only, unit %/min assumed.

## Task Consider the molecule COc1cc2c(cc1OC)CC(=O)N(CCCN(C)C[C@H]1Cc3cc(OC)c(OC)cc31)CC2 [ivabradine hemipamoate] and give its measured Derivative (of % of active ingredient released over time).
## Result 0.25

From: patent US9856221B2
